Biological target: Sa-ClpP (Staphylococcus aureus)
Construct: made in house; host or cells: E. coli BL21 (DE3)
Sequence (Q2G036 whole entry): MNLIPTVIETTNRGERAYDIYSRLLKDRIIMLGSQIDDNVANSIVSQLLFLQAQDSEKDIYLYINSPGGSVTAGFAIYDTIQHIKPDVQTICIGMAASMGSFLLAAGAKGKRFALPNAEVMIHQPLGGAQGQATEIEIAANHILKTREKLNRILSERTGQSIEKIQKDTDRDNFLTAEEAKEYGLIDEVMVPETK
Assay: ClpP activation, EnzCheck Protease Assay with Bodipy-FL casein (second described method)
Type: biochemical, S. aureus
Conditions: read-out: ClpP Activation EC50 (converted)
*1 amine or outer side, *2 acyl side, *3 side chain or, on linkers, in order; H or OH if unused. Where a SMILES comes first, the peptide text is derived from it. Bridges are numbered along the chain shown (N, C = ends). [ ]: non-standard residue; d: D form. The star is where a group is joined. Phe(3,5-F2) = N[C@@H](Cc1cc(F)cc(F)c1)C(=O)O; NHPh(4-CF3) = FC(F)(F)c1ccc(N*)cc1; Heptenoyl(2E) = CCCC/C=C/C(=O)*; aThr = C[C@H](O)[C@H](N)C(=O)O; Pip = O=C(O)[C@@H]1CCCCN1; CO = O=C([*:1])[*:2]
readout_label: EC50

Test system Sa-ClpP (Staphylococcus aureus); read-out EC50; what value for "CCc1ccc(NC(=O)N[C@@H](Cc2ccccc2)C(=O)N[C@H]2COC(=O)[C@@H]3C[C@@H](C)CN3C(=O)[C@H](C)NC(=O)[C@@H]3CCCCN3C(=O)[C@@H]3CCCN3C2=O)cc1" ?
5500 nM

// repeat for "C[C@@H]1C[C@H]2C(=O)OC[C@H](NC(=O)[C@H](Cc3ccccc3)NC(=O)Nc3cccc(Cl)c3)C(=O)N3CCC[C@H]3C(=O)N3CCCC[C@H]3C(=O)N[C@@H](C)C(=O)N2C1" and report
1100 nM

// repeat for "COc1ccc(NC(=O)N[C@@H](Cc2ccccc2)C(=O)N[C@H]2COC(=O)[C@@H]3C[C@@H](C)CN3C(=O)[C@H](C)NC(=O)[C@@H]3CCCCN3C(=O)[C@@H]3CCCN3C2=O)cc1" and report
800 nM

// repeat for C[C@@H]1NC(=O)[C@@H]2CCCCN2C(=O)[C@@H]2CCCN2C(=O)[C@@H](NC(=O)[C@H](Cc2cc(F)cc(F)c2)NC(=O)Nc2ccc(C(F)(F)F)cc2)[C@H](C)OC(=O)[C@@H]2CCCN2C1=O [Compound 16] ({NHPh(4-CF3)-CO}-[Phe(3,5-F2)][aThr]P[Pip]AP; ester 2-C) and report
550 nM

// repeat for Cc1ccc(NC(=O)N[C@@H](Cc2cc(F)cc(F)c2)C(=O)N[C@H]2COC(=O)C3C[C@@H](F)CN3C(=O)[C@H](C)NC(=O)C3CCCCN3C(=O)C3CCCN3C2=O)cc1 (stereo partly drawn) and report
2500 nM

// repeat for Cc1ccc(NC(=O)N[C@@H](Cc2cc(F)cc(F)c2)C(=O)N[C@@H]2C(=O)N3CCCC3C(=O)N3CCOCC3C(=O)N[C@@H](C)C(=O)N3C[C@@H](C)CC3C(=O)O[C@H]2C)cc1 (stereo partly drawn) and report
390 nM

// repeat for CCCC/C=C/C(=O)N[C@@H](Cc1cc(F)cc(F)c1)C(=O)N[C@@H]1C(=O)N2CCC[C@H]2C(=O)N2CCCC[C@H]2C(=O)N[C@@H](C)C(=O)N2CCC[C@H]2C(=O)O[C@H]1C [ADEP 2719, reference compound] ({Heptenoyl(2E)}-[Phe(3,5-F2)][aThr]P[Pip]AP; ester 2-C) and report
380 nM

// repeat for Cc1ccc(NC(=O)N[C@@H](Cc2ccccc2)C(=O)N[C@H]2COC(=O)C3C[C@H](C)CN3C(=O)[C@H](C)NC(=O)C3CCCCN3C(=O)C3CCCN3C2=O)cc1 (stereo partly drawn) and report
370 nM

// repeat for "C[C@@H]1C[C@H]2C(=O)OC[C@H](NC(=O)[C@H](Cc3ccccc3)NC(=O)Nc3ccc(OC(F)(F)F)cc3)C(=O)N3CCC[C@H]3C(=O)N3CCCC[C@H]3C(=O)N[C@@H](C)C(=O)N2C1" and report
500 nM
